measured_target: Solute carrier organic anion transporter family member 2B1 (Homo sapiens)
Sequence (O94956 whole entry): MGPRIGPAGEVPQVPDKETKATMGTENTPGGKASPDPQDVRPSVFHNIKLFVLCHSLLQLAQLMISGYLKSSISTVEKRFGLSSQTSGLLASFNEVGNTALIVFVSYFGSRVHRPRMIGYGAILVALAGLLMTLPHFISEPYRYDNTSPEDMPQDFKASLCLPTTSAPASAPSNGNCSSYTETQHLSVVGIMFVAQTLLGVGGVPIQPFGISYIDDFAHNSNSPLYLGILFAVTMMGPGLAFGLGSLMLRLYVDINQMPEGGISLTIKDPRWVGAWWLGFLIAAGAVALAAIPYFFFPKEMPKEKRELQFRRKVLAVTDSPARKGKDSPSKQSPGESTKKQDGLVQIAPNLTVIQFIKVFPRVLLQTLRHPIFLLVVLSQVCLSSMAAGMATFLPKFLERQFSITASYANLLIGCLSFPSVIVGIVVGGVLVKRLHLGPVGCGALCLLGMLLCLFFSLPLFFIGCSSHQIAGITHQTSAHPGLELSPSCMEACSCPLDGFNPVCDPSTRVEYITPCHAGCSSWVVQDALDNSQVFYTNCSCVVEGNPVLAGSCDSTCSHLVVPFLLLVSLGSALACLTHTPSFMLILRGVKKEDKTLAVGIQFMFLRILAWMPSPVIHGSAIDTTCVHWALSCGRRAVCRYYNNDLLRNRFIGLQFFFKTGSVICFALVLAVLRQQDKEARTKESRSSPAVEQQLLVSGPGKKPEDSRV
assay: Inhibition of human liver OATP2B1 expressed in HEK293 Flp-In cells assessed as reduction in [3H]E3S uptake at 20 uM incubated for 5 mins by scintillation counting
reported_conditions: hek293, 5 min
// label = met if INH is not less than 30%, otherwise not met

Examples from the recorded data:
compound: CC(C)C(=O)Nc1ccc([N+](=O)[O-])c(C(F)(F)F)c1 [FLUTAMIDE]
class: met

compound: N[C@@H]1C[C@H]1c1ccccc1.N[C@H]1C[C@@H]1c1ccccc1 (relative stereo)
class: not met

compound: CCc1cccc2cc(C(O)CNC(C)(C)C)oc12 (stereo not given)
class: not met

Continue with the compound presented below.
**Q:** Is the recorded value of INH equal to or greater than 30% for this compound? S=P(N1CC1)(N1CC1)N1CC1
**A:** not met

* * *

I'd be grateful if you could share measured INH for these entries.
measured_target: Solute carrier organic anion transporter family member 1B1 (Homo sapiens, UniProt Q9Y6L6)
Sequence (Q9Y6L6 whole entry): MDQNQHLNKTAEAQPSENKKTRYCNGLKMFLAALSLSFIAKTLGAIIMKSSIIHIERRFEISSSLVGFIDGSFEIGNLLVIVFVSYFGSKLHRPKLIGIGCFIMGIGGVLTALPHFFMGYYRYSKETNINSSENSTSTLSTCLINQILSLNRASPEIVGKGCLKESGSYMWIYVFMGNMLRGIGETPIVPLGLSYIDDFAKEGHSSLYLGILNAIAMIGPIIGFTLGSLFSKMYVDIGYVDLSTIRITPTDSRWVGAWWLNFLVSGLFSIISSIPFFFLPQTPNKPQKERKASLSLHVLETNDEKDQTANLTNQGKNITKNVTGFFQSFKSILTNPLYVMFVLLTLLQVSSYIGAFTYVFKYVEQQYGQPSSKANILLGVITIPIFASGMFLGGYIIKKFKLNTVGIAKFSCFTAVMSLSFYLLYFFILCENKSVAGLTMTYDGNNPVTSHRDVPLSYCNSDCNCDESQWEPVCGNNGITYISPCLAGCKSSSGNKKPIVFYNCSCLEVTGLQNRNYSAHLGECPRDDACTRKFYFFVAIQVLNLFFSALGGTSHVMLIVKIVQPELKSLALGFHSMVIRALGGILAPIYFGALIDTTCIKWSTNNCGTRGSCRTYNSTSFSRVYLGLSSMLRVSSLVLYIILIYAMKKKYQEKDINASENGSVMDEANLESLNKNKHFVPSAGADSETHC
assay: Inhibition of human liver OATP1B1 expressed in HEK293 Flp-In cells assessed as reduction in E17-betaG uptake at 20 uM by scintillation counting
reported_conditions: hek293, 20 µM
Where a SMILES comes first, the peptide text is derived from it.
Numbers only, in %.

Before answering, review these 8 worked examples.
compound: CCCc1nn(C)c2c(=O)[nH]c(-c3cc(S(=O)(=O)N4CCN(C)CC4)ccc3OCC)nc12
measured_target: Solute carrier organic anion transporter family member 1B1 (Homo sapiens, UniProt Q9Y6L6)
measurement_type: INH
display_unit: %
assay_result: 22.2
//
compound: CCC(C)n1ncn(-c2ccc(N3CCN(c4ccc(OCC5COC(Cn6cncn6)(c6ccc(Cl)cc6Cl)O5)cc4)CC3)cc2)c1=O (stereo not given)
measured_target: Solute carrier organic anion transporter family member 1B1 (Homo sapiens, UniProt Q9Y6L6)
measurement_type: INH
display_unit: %
assay_result: 22.3
//
compound: O=C1c2c(O)ccc(O)c2C(=O)c2c(NCCNCCO)ccc(NCCNCCO)c21
measured_target: Solute carrier organic anion transporter family member 1B1 (Homo sapiens, UniProt Q9Y6L6)
measurement_type: INH
display_unit: %
assay_result: 27.2
//
compound: CCC[C@@]1(CCc2ccccc2)CC(O)=C([C@H](CC)c2cccc(NS(=O)(=O)c3ccc(C(F)(F)F)cn3)c2)C(=O)O1
measured_target: Solute carrier organic anion transporter family member 1B1 (Homo sapiens, UniProt Q9Y6L6)
measurement_type: INH
display_unit: %
assay_result: 89.5
//
compound: CN(C)C(=O)C(CCN1CCC(O)(c2ccc(Cl)cc2)CC1)(c1ccccc1)c1ccccc1 [LOPERAMIDE]
measured_target: Solute carrier organic anion transporter family member 1B1 (Homo sapiens, UniProt Q9Y6L6)
measurement_type: INH
display_unit: %
assay_result: 32.5
//
compound: CN[C@@H]1C[C@H](N)[C@@H](O)[C@H](O[C@H]2O[C@H](CO)[C@H](O)[C@@H]3O[C@@]4(O[C@@H]23)O[C@H]([C@H](N)CO)[C@H](O)[C@H](O)[C@H]4O)[C@H]1O
measured_target: Solute carrier organic anion transporter family member 1B1 (Homo sapiens, UniProt Q9Y6L6)
measurement_type: INH
display_unit: %
assay_result: 32.8
//
compound: C[C@@H]1O[C@@H](O[C@H]2[C@H](Oc3cc(O)c4c(c3)O[C@H](c3ccc(O)cc3)CC4=O)O[C@H](CO)[C@@H](O)[C@@H]2O)[C@H](O)[C@H](O)[C@H]1O
measured_target: Solute carrier organic anion transporter family member 1B1 (Homo sapiens, UniProt Q9Y6L6)
measurement_type: INH
display_unit: %
assay_result: 34
//
compound: C=C[C@H]1C[N@@]2CC[C@H]1C[C@H]2[C@H](O)c1ccnc2ccc(OC)cc12
measured_target: Solute carrier organic anion transporter family member 1B1 (Homo sapiens, UniProt Q9Y6L6)
measurement_type: INH
display_unit: %
assay_result: 54

// batch mode: one INH value per listed entry
1. COc1ccc([C@@H]2Sc3ccccc3N(CCN(C)C)C(=O)[C@@H]2OC(C)=O)cc1
2. NCC(=O)N1CCC[C@H]1C(=O)O [GLYCYL PROLINE] (H-Gly-Pro-OH)
3. CC(=O)N1CCN(c2ccc(OCC3COC(Cn4ccnc4)(c4ccc(Cl)cc4Cl)O3)cc2)CC1 (stereo not given)
4. C[C@H](CS)C(=O)N1CCC[C@H]1C(=O)O

**A:**
1: 3.2; 2: -8.4; 3: 53.6; 4: 18.6
